Where these numbers come from: patent US5922580A

- Test system: glucoamylase
- test_name: Enzymatic hydrolysis by glucoamylase
- Format: biochemical
- measurement_context: glucoamylase hydrolysate
Listing: Molecular ratio (Glucose/Trehalose) of selected compounds

[
  {
    "smiles_input": "OC[C@H]1O[C@H](O[C@H]2O[C@H](CO)[C@@H](O[C@H]3O[C@H](CO)[C@@H](O)[C@H](O)[C@H]3O)[C@H](O)[C@H]2O)[C@H](O)[C@@H](O)[C@@H]1O",
    "Molecular ratio (Glucose/Trehalose)": 1.07
  },
  {
    "smiles_input": "OC[C@H]1O[C@H](O[C@H]2O[C@H](CO)[C@@H](O[C@H]3O[C@H](CO)[C@@H](O[C@H]4O[C@H](CO)[C@@H](O)[C@H](O)[C@H]4O)[C@H](O)[C@H]3O)[C@H](O)[C@H]2O)[C@H](O)[C@@H](O)[C@@H]1O",
    "Molecular ratio (Glucose/Trehalose)": 2.06
  },
  {
    "smiles_input": "OC[C@H]1O[C@H](O[C@H]2O[C@H](CO)[C@@H](O[C@H]3O[C@H](CO)[C@@H](O[C@H]4O[C@H](CO)[C@@H](O[C@H]5O[C@H](CO)[C@@H](O[C@H]6O[C@H](CO)[C@@H](O)[C@H](O)[C@H]6O)[C@H](O)[C@H]5O)[C@H](O)[C@H]4O)[C@H](O)[C@H]3O)[C@H](O)[C@H]2O)[C@H](O)[C@@H](O)[C@@H]1O",
    "Molecular ratio (Glucose/Trehalose)": 4.09
  },
  {
    "smiles_input": "OC[C@H]1O[C@H](O[C@H]2O[C@H](CO)[C@@H](O[C@H]3O[C@H](CO)[C@@H](O[C@H]4O[C@H](CO)[C@@H](O[C@H]5O[C@H](CO)[C@@H](O[C@H]6O[C@H](CO)[C@@H](O[C@H]7O[C@H](CO)[C@@H](O)[C@H](O)[C@H]7O)[C@H](O)[C@H]6O)[C@H](O)[C@H]5O)[C@H](O)[C@H]4O)[C@H](O)[C@H]3O)[C@H](O)[C@H]2O)[C@H](O)[C@@H](O)[C@@H]1O",
    "Molecular ratio (Glucose/Trehalose)": 5.11
  },
  {
    "smiles_input": "OC[C@H]1O[C@H](O[C@H]2O[C@H](CO)[C@@H](O[C@H]3O[C@H](CO)[C@@H](O[C@H]4O[C@H](CO)[C@@H](O[C@H]5O[C@H](CO)[C@@H](O)[C@H](O)[C@H]5O)[C@H](O)[C@H]4O)[C@H](O)[C@H]3O)[C@H](O)[C@H]2O)[C@H](O)[C@@H](O)[C@@H]1O",
    "Molecular ratio (Glucose/Trehalose)": 3.02
  }
]

====

Listing: Coloration degree (480 nm) of selected compounds
- test_name: Maillard reaction with glycine
- Type: physicochemical
- measurement_context: 1% glycine, 10% saccharide, 50 mM phosphate buffer pH 7.0, 100° C. for 90 min; absorbance in 1-cm cell
quantity_measured: Coloration degree (480 nm)

[
  {
    "compound": "OC[C@H]1O[C@H](O[C@H]2O[C@H](CO)[C@@H](O[C@H]3O[C@H](CO)[C@@H](O[C@H]4O[C@H](CO)[C@@H](O)[C@H](O)[C@H]4O)[C@H](O)[C@H]3O)[C@H](O)[C@H]2O)[C@H](O)[C@@H](O)[C@@H]1O [P II, α-maltosyl trehalose]",
    "quantity_measured": "Coloration degree (480 nm)",
    "observed_result": 0.018
  },
  {
    "compound": "OC[C@H]1O[C@H](O[C@H]2[C@H](O)[C@@H](O)[C@@H](O[C@H]3[C@H](O)[C@@H](O)[C@@H](O[C@H]4[C@H](O)[C@@H](O)[C@@H](O[C@H]5[C@H](O)[C@@H](O)[C@@H](O[C@H]6[C@H](O)[C@@H](O)[C@@H](O[C@H]7[C@H](O)[C@@H](O)C(O)O[C@@H]7CO)O[C@@H]6CO)O[C@@H]5CO)O[C@@H]4CO)O[C@@H]3CO)O[C@@H]2CO)[C@H](O)[C@@H](O)[C@@H]1O (stereo partly drawn) [Maltoheptaose]",
    "quantity_measured": "Coloration degree (480 nm)",
    "observed_result": 0.271
  },
  {
    "compound": "OC[C@H]1O[C@H](O[C@H]2[C@H](O)[C@@H](O)[C@@H](O[C@H]3[C@H](O)[C@@H](O)[C@@H](O[C@H]4[C@H](O)[C@@H](O)[C@@H](O[C@H]5[C@H](O)[C@@H](O)[C@@H](O[C@H]6[C@H](O)[C@@H](O)C(O)O[C@@H]6CO)O[C@@H]5CO)O[C@@H]4CO)O[C@@H]3CO)O[C@@H]2CO)[C@H](O)[C@@H](O)[C@@H]1O (stereo partly drawn) [Maltohexaose]",
    "quantity_measured": "Coloration degree (480 nm)",
    "observed_result": 0.318
  }
]

====

- study_target: α-amylase specimen derived from pig pancreas (Sus scrofa)
- Construct: purchased Sigma Chemical Company, St. Louis, USA; host or cells: pig pancreas
- Sequence (P00690 16-511): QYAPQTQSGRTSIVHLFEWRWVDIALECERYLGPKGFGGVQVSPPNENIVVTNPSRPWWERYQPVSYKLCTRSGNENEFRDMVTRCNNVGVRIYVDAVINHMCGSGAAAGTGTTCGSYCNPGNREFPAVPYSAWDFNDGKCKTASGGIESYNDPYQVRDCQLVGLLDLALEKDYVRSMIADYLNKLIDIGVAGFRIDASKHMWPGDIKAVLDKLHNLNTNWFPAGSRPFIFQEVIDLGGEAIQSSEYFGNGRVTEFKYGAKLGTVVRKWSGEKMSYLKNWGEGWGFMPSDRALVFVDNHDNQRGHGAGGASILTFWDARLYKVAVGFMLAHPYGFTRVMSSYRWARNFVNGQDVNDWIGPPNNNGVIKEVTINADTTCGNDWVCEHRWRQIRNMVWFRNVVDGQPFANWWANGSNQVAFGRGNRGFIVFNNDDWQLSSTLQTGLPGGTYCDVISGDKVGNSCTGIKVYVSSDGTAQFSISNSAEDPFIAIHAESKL
- test_name: Hydrolysis by α-amylase
- Assay type: biochemical
- Parameters: unit not given here
- measurement_context: α-amylase, 10 mg/ml, pH 6.9, 37° C., 18 hours; HPLC
- Description: The enzymatic reaction with the α-amylase was as follows: Dissolving 10 mg of a substrate in one ml of 50 mM phosphate buffer (pH 6.9), mixing the resultant solution with one unit of the α-amylase, and incubating the resultant mixture at 37° C. for 18 hours. The enzymatic reaction with the α-glucosidase was conducted under the same conditions as in the case of α-amylase except that 50 mM acetate buffer (pH 4.0) was used as a buffer. […]
quantity_measured: Saccharide composition of hydrolysate: P II

[
  {
    "compound": "OC[C@H]1O[C@H](O[C@H]2O[C@H](CO)[C@@H](O[C@H]3O[C@H](CO)[C@@H](O)[C@H](O)[C@H]3O)[C@H](O)[C@H]2O)[C@H](O)[C@@H](O)[C@@H]1O [P I, α-glucosyl trehalose]",
    "observed_result": 0
  }
]

====

- System: rat intestinal acetone powder
- test_name: Hydrolysis by rat intestinal acetone powder
- Type: in vitro ADME
- measurement_context: 50 mM maleate buffer pH 6.0, 37° C., 18 hours
Listing: Saccharide composition of hydrolysate with rat intestinal acetone powder: Glucose of selected compounds
quantity_measured: Saccharide composition of hydrolysate with rat intestinal acetone powder: Glucose (%)

[
  {
    "smiles_input": "OC[C@H]1O[C@H](O[C@H]2O[C@H](CO)[C@@H](O[C@H]3O[C@H](CO)[C@@H](O[C@H]4O[C@H](CO)[C@@H](O[C@H]5O[C@H](CO)[C@@H](O[C@H]6O[C@H](CO)[C@@H](O[C@H]7O[C@H](CO)[C@@H](O)[C@H](O)[C@H]7O)[C@H](O)[C@H]6O)[C@H](O)[C@H]5O)[C@H](O)[C@H]4O)[C@H](O)[C@H]3O)[C@H](O)[C@H]2O)[C@H](O)[C@@H](O)[C@@H]1O",
    "observed_result": 73.4
  },
  {
    "smiles_input": "OC[C@H]1O[C@H](O[C@H]2O[C@H](CO)[C@@H](O[C@H]3O[C@H](CO)[C@@H](O[C@H]4O[C@H](CO)[C@@H](O[C@H]5O[C@H](CO)[C@@H](O[C@H]6O[C@H](CO)[C@@H](O)[C@H](O)[C@H]6O)[C@H](O)[C@H]5O)[C@H](O)[C@H]4O)[C@H](O)[C@H]3O)[C@H](O)[C@H]2O)[C@H](O)[C@@H](O)[C@@H]1O",
    "observed_result": 68.8
  },
  {
    "smiles_input": "OC[C@H]1O[C@H](O[C@H]2O[C@H](CO)[C@@H](O[C@H]3O[C@H](CO)[C@@H](O[C@H]4O[C@H](CO)[C@@H](O[C@H]5O[C@H](CO)[C@@H](O)[C@H](O)[C@H]5O)[C@H](O)[C@H]4O)[C@H](O)[C@H]3O)[C@H](O)[C@H]2O)[C@H](O)[C@@H](O)[C@@H]1O",
    "observed_result": 62.0
  }
]

====

Listing: Percentage of remaining substrate in reaction product of selected molecules
- Test system: non-reducing saccharide-forming enzyme
- Type: biochemical, Rhizobium sp. M-11
- measurement_context: non-reducing saccharide-forming enzyme, 48 h, pH 7
quantity_measured: Percentage of remaining substrate in reaction product

[
  {
    "molecule": "OC[C@H]1O[C@H](O[C@H]2[C@H](O)[C@@H](O)[C@@H](O[C@H]3[C@H](O)[C@@H](O)[C@@H](O[C@H]4[C@H](O)[C@@H](O)[C@@H](O[C@H]5[C@H](O)[C@@H](O)[C@@H](O[C@H]6[C@H](O)[C@@H](O)C(O)O[C@@H]6CO)O[C@@H]5CO)O[C@@H]4CO)O[C@@H]3CO)O[C@@H]2CO)[C@H](O)[C@@H](O)[C@@H]1O (stereo partly drawn)",
    "observed_result": "6.5%"
  },
  {
    "molecule": "OC[C@H]1O[C@H](O[C@H]2[C@H](O)[C@@H](O)[C@@H](O[C@H]3[C@H](O)[C@@H](O)[C@@H](O[C@H]4[C@H](O)[C@@H](O)[C@@H](O[C@H]5[C@H](O)[C@@H](O)C(O)O[C@@H]5CO)O[C@@H]4CO)O[C@@H]3CO)O[C@@H]2CO)[C@H](O)[C@@H](O)[C@@H]1O (stereo partly drawn)",
    "observed_result": "7.3%"
  },
  {
    "molecule": "OC[C@H]1O[C@H](O[C@H]2[C@H](O)[C@@H](O)[C@@H](O[C@H]3[C@H](O)[C@@H](O)[C@@H](O[C@H]4[C@H](O)[C@@H](O)[C@@H](O[C@H]5[C@H](O)[C@@H](O)[C@@H](O[C@H]6[C@H](O)[C@@H](O)[C@@H](O[C@H]7[C@H](O)[C@@H](O)C(O)O[C@@H]7CO)O[C@@H]6CO)O[C@@H]5CO)O[C@@H]4CO)O[C@@H]3CO)O[C@@H]2CO)[C@H](O)[C@@H](O)[C@@H]1O (stereo partly drawn)",
    "observed_result": "6.7%"
  }
]
